target-or-test-system: Human Platelet PAF Receptor (Homo sapiens, UniProt P25105)
Construct: endogenous in cells; host or cells: washed intact platelets from blood of healthy human donors
Sequence (P25105 whole entry): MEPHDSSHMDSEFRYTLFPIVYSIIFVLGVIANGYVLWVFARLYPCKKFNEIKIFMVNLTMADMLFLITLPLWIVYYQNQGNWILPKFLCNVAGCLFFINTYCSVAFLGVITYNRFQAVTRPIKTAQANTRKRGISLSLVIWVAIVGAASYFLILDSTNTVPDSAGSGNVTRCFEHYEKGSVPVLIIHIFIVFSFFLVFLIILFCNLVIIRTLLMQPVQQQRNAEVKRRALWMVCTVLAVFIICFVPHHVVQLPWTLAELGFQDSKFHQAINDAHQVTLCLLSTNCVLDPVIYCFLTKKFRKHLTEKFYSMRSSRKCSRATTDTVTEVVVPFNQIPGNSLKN
test: Human Platelet PAF Receptor Assay test (Test A): inhibition of specific binding of [3H]-PAF to platelets
measurement-conditions: inhibition of [3H]-PAF specific binding
experimental-readout: IC50 (µM)

1) COc1cc([C@H]2CC[C@H](c3cc(OC)c(OC)c(OC)c3)C2N)cc(OC)c1OC (relative stereo) [Example 10, 1α, 2α, 5β isomer] :: 2.7

[A] COc1cc([C@H]2CC[C@@H](c3cc(OC)c(OC)c(OC)c3)[C@H]2O)cc(OC)c1OC [Example 3, 1α, 2α, 5α isomer]
[B] COc1cc(C2CCC(c3cc(OC)c(OC)c(OC)c3)C2=NO)cc(OC)c1OC (stereo not drawn)
input: # argmax over IC50 for candidates A and B Provide the label of your selected option as the answer.
output: A

----------
System: PAF-induced human platelet aggregation
test: Platelet Aggregation Inhibition Assay test (PAIA test): inhibition of PAF-induced human platelet aggregation in vitro
Format: cell-based
measurement-conditions: 0.1 h, platelet rich plasma, AUC over 6 min
experimental-readout: IC50 (µM)

[a] COc1cc([C@H]2CC[C@H](c3cc(OC)c(OC)c(OC)c3)C2OC)cc(OC)c1OC (relative stereo) [Example 4]
[b] COc1cc([C@H]2CC[C@@H](c3cc(OC)c(OC)c(OC)c3)[C@H]2OC)cc(OC)c1OC [Example 5]
input: # argmax over IC50 for candidates a and b Provide the label of your selected option as the answer.
output: b
(b: 22 µM, a: 0.88 µM)

----------
target-or-test-system: Human Platelet PAF Receptor (Homo sapiens)
Construct: endogenous in cells; host or cells: washed intact platelets from blood of healthy human donors
test: Human Platelet PAF Receptor Assay test (Test A): inhibition of specific binding of [3H]-PAF to platelets
measurement-conditions: inhibition of [3H]-PAF specific binding
experimental-readout: IC50 (µM)

Some compounds with known IC50 results, for comparison:
1) COc1cc([C@H]2CC[C@@H](c3cc(OC)c(OC)c(OC)c3)[C@H]2N)cc(OC)c1OC [Example 10, 1α, 2α, 5α isomer] :: 22
2) COc1cc([C@H]2CC[C@H](c3cc(OC)c(OC)c(OC)c3)C2O)cc(OC)c1OC (relative stereo) [Example 3, 1α, 2α, 5β isomer] :: 4.7

[A] COc1cc(C2CCC(c3cc(OC)c(OC)c(OC)c3)C2=O)cc(OC)c1OC (stereo not shown)
[B] COc1cc(C2=CCC(c3cc(OC)c(OC)c(OC)c3)C2=O)cc(OC)c1OC (stereo not shown)
input: # argmax over IC50 for candidates A and B Provide the label of your selected option as the answer.
output: B
(B: 6 µM, A: 0.9 µM)
